Data credit: ChEMBL document CHEMBL1777782

# assay.comment: Half life in human liver microsomes at 10 uM
# setup.conditions: liver microsomes
Measured half-life at 10 µM, listed per entry for reference.
Respond with the bare value in min.

compound	half-life at 10 µM, min
Cn1c(C(=O)O)cc2cc(NC(=O)C(C)(C)NC(=O)c3ccc4c(C5CCCCC5)c(-c5ccccn5)n(C)c4c3)ccc21	36
Cn1c(-c2ccccn2)c(C2CCCCC2)c2ccc(C(=O)NC(C)(C)C(=O)Nc3ccc(CCC(=O)O)cc3)cc21	63
Cc1c(C(=O)O)sc2ccc(NC(=O)C(C)(C)NC(=O)c3ccc4c(C5CCCCC5)c(-c5ccccn5)n(C)c4c3)cc12	34
Cn1c(-c2ccccn2)c(C2CCCCC2)c2ccc(C(=O)NC(C)(C)C(=O)Nc3ccc(-c4ccc(C(=O)O)o4)cc3)cc21	43
Cn1c(-c2ccccn2)c(C2CCCCC2)c2ccc(C(=O)NC(C)(C)C(=O)Nc3ccc(NC(=O)C(N)=O)cc3)cc21	25
Cn1c(-c2ccccn2)c(C2CCCCC2)c2ccc(C(=O)NC3(C(=O)Nc4ccc(S(N)(=O)=O)cc4)CCC3)cc21	15

Recorded half-life at 10 µM of Cn1c(-c2ccccn2)c(C2CCCCC2)c2ccc(C(=O)NC3(C(=O)Nc4ccc(/C=C/C(=O)O)cc4)CCOCC3)cc21 , please.
41

Field request: half-life at 10 µM | item: CC(=O)N1CCCC(NC(=O)c2ccc3c(C4CCCCC4)c(-c4ccccn4)n(C)c3c2)(C(=O)Nc2ccc(/C=C/C(=O)O)cc2)C1 (racemic)
256

What measured half-life at 10 µM goes with Cn1c(-c2ccccn2)c(C2CCCCC2)c2ccc(C(=O)N[C@@]3(C(=O)Nc4ccc(-c5cncnc5)cc4)CCNC3)cc21 ?
64

Endpoint output: half-life at 10 µM of Cn1c(-c2ccccn2)c(C2CCCCC2)c2ccc(C(=O)N[C@]3(C(=O)Nc4ccc(/C=C/C(=O)O)cc4)CCNC3)cc21 . Value?
191

Reported half-life at 10 µM, compound Cn1c(-c2ccccn2)c(C2CCCCC2)c2ccc(C(=O)NC(C)(C)C(=O)Nc3ccc(-c4nc(C(=O)O)cs4)cc3)cc21 : ____
55
